The entries below are paired with their reported Kd.
Molecular target: T1, BMP-9 (UniProt Q9UK05 320-429)
T1 construct: also called bone morphogenetic protein 9
T1 sequence (looked up): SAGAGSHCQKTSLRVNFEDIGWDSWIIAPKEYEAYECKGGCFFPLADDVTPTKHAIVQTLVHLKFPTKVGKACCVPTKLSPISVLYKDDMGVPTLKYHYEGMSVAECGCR
Assay: SPR (Biacore 3000), Fc fusion captured, ligand in solution
Number in nM, nothing else.

Consider the following illustrative entries.
>  <BINDER>
ActRIIBΔ9 variant (SEQ ID NO: 3)-Fc (Fc fusion, not shown: a dimerising Fc or GST, Engineered variant of the human ActRIIB extracellular portion) GRGEAETRECIYYNANWELDRTNQSGLERCEGEQDKRLHCYASWRNSSGTIELVKKGCWLDDINCYDRQECVATKENPQVYFCCCEGNFCNERFTHLPEAGGPEVTYEPPPTAPT

>  <Kd, nM>
28

$$$$
>  <BINDER>
ActRIIB 2.12 variant (SEQ ID NO: 15)-Fc (Fc fusion, not shown: a dimerising Fc or GST, Engineered variant of the human ActRIIB extracellular portion; recombinant protein) GRGEAETRECLYYNANWELERTNQSGVERCEGEKDKRLHCYASWRNSSGSLEIVKKGCWLDDFNCYDRDTCVATKENPQVYFCCCEGNMCNERFTHLPEAGGPEVTYEPPPTAPT

>  <Kd, nM>
31

$$$$
>  <BINDER>
ActRIIB 2.06 variant (SEQ ID NO: 9)-Fc (Fc fusion, not shown: a dimerising Fc or GST, Engineered variant of the human ActRIIB extracellular portion; recombinant protein; also called ActRIIB variant 2.06-hFc) GRGEAETRECIYYNANWELERTNQSGLERCEGEQDKRLHCFASWKNSSGTIELVKQGCWLDDFNCYDRQECVAKKDSPEVYFCCCEGNFCNERFTHLPEAGGPEVTYEPPPTAPT

>  <Kd, nM>
0.3

$$$$
>  <BINDER>
ActRIIB 2.11 variant (SEQ ID NO: 14)-Fc (Fc fusion, not shown: a dimerising Fc or GST, Engineered variant of the human ActRIIB extracellular portion; recombinant protein) GRGEAETRECLYYNANWELERTNQSGVERCEGEKDKRLHCYASWRNSSGSLEIVKKGCWLDDFNCYDRTDCVATKENPQVYFCCCEGNMCNERFTHLPEAGGPEVTYEPPPTAPT

>  <Kd, nM>
2.7

$$$$
>  <BINDER>
ActRIIB 2.10 variant (SEQ ID NO: 13)-Fc (Fc fusion, not shown: a dimerising Fc or GST, Engineered variant of the human ActRIIB extracellular portion; also called ActRIIB variant 2.10-hFc) GRGEAETRECLYYNANWELERTNQSGVERCEGEKDKRLHCYASWRNSSGSLEIVKKGCWLDDFNCYDRDTCVATEENPQVYFCCCEGNMCNERFTHLPEAGGPEVTYEPPPTAPT

>  <Kd, nM>
1.7

$$$$

# context switch: different binder, same Kd
What value of measured Kd is listed for ActRIIB 2.09 variant (SEQ ID NO: 12)-Fc (Fc fusion, not shown: a dimerising Fc or GST, Engineered variant of the human ActRIIB extracellular portion; also called ActRIIB variant 2.09-hFc) GRGEAETRECLYYNANWELERTNQSGVERCEGEKDKRLHCYASWRNSSGSLEIVKKGCWLDDFNCYDRTDCVATEENPQVYFCCCEGNMCNERFTHLPEAGGPEVTYEPPPTAPT ?
0.44
